Reference source: paper PMC5540273

# System: ROCK2

molecule | target_of_assay | unit_tag | Kd
Cl.Cl.c1ccc(-c2cc3ccncc3cc2OC2CCNCC2)cc1 [GSK1122999] | ROCK2 | nM | 180

====

# System: IRAK1
# study_conditions: concentration: 1 μM, replicates: in singlicate; n = 1

compound | %Inh
CCC(CC)(CC)n1cnc2c(N)ncnc21 [SKF-97620] | 33%
Oc1ccc2ncnc(Nc3ccc(OCc4ccccc4)cc3)c2c1 [GI262866] | 0%
Nc1nc(-c2cccnc2)c(-c2ccnc3ccccc23)s1 [GW684083] | 42%
Cl.Cl.c1ccc(-c2cc3ccncc3cc2OC2CCNCC2)cc1 [GSK1122999] | 56%
COc1ccc(NC(=O)Nc2ccc(C)c(-c3ccc(C(=O)Nc4ccncc4)cc3)c2)cc1 [GSK1398475] | 0%
Nc1nc(-c2ccc3c(N)n[nH]c3c2)cc(N2CCCCC2)n1 [GSK2228768] | 0%
O=C(c1ccc(-c2cc(-c3c[nH]nc3-c3ccccn3)ccn2)cc1)N1CCCC1 [GW792479] | 0%
Cn1ccc2ncnc(Nc3ccc(Oc4cccc(Cl)c4)c(Cl)c3)c21 | 27%
CCn1c(-c2ccncc2)nc2cnccc21 [SB-735216] | 6%
CSc1ccc(NC2=C(c3ccccc3Cl)C(=O)NC2=O)cc1 [SB-342411] | 0%
Cc1cccc(-c2nc(Nc3ccc4[nH]nnc4c3)c3ccccc3n2)n1 [GW867587] | 0%

====

# Test system: VRK2
# study_conditions: concentration: 1 μM, replicates: in singlicate; n = 1

given_smiles | target_of_assay | %Inh (%)
COc1cc2ncnc(Nc3ccc(OCc4ccccc4Br)c(Cl)c3)c2cc1OC.Cl | VRK2 | 11
O=C(NCCCN1CCCC1=O)c1cnc(NCc2cc(Cl)ccc2Cl)nc1NC1CCNCC1 | VRK2 | 70
COC(=O)c1c(-c2ccccc2)c2cc(Cl)ccc2c(=O)n1Cc1ccc(S(C)(=O)=O)cc1 | VRK2 | 10
CSc1ccc(NC2=C(c3ccccc3Cl)C(=O)NC2=O)cc1 | VRK2 | 0
O=C(Nc1ccccc1)Nc1ccc(Oc2ccc3nccn3n2)cc1 | VRK2 | 0

====

# Test system: PRKG1
pKd: −log10 of the molar value.

given_smiles | pKd
C[C@@H]1CCN(C(=O)CO)C[C@@H]1N(C)c1ncnc2[nH]ccc12 | < 5.00

====

# Test system: CLK4
# study_conditions: concentration: 1 μM, replicates: in singlicate; n = 1
Quick rule for you: %Inh under 20% gets Fulfilled, anything else gets Not fulfilled.

compound | target_of_assay | discrete_label
CS(=O)(=O)CCNCc1ccc(-c2ccc3ncnc(Nc4ccc(OCc5ccccc5)c(Cl)c4)c3c2)o1.Cl [GW574783] | CLK4 | Not fulfilled
COc1cc2ncnc(Nc3ccc(OCc4ccccc4Br)c(Cl)c3)c2cc1OC.Cl [GI261590] | CLK4 | Fulfilled
CC(=O)Nc1n[nH]c2ncc(-c3ccccc3)cc12 [SB-548492] | CLK4 | Not fulfilled
C[C@@H]1CCN(C(=O)CO)C[C@@H]1N(C)c1ncnc2[nH]ccc12 | CLK4 | Fulfilled
CCC(CC)(CC)n1cnc2c(N)ncnc21 [SKF-97620] | CLK4 | Fulfilled
O=c1cc(N2CCOCC2)nc2n(Cc3cccc(Cl)c3)ccn12 [GSK2296823] | CLK4 | Not fulfilled
Oc1ccc2ncnc(Nc3ccc(OCc4ccccc4)cc3)c2c1 [GI262866] | CLK4 | Fulfilled
COc1cc2c(Nc3cccc(NC(=O)c4ccccc4)c3)ncnc2cc1OCCCN1CCOCC1 [GSK223810] | CLK4 | Fulfilled
CC(C)N1CCC(n2cnc(-c3ccc(F)cc3)c2-c2ccnc(N)n2)CC1 [SB-223132] | CLK4 | Fulfilled
CCn1c(-c2ccncc2)nc2cnccc21 [SB-735216] | CLK4 | Fulfilled
Nc1nc(-c2ccccn2)c(-c2ccnc3ccccc23)s1 [GW548057] | CLK4 | Not fulfilled
N#Cc1ccc(Oc2ccc(Nc3ncnc4cc[nH]c34)cc2Cl)cc1 | CLK4 | Not fulfilled
Nc1nc(-c2ccc3c(N)n[nH]c3c2)cc(N2CCC[C@@H](C(=O)Nc3ccccc3)C2)n1.O=C(O)C(F)(F)F.O=C(O)C(F)(F)F [GSK2288359] | CLK4 | Not fulfilled
COc1ccc(NC(=O)Nc2ccc(C)c(-c3ccc(C(=O)Nc4ccncc4)cc3)c2)cc1 [GSK1398475] | CLK4 | Fulfilled
Cc1cccc(-c2nc(Nc3ccc4[nH]nnc4c3)c3ccccc3n2)n1 [GW867587] | CLK4 | Fulfilled
Cn1ccc2ncnc(Oc3ccc(NC(=O)Nc4cccnc4)c(Cl)c3)c21 | CLK4 | Not fulfilled
CSc1ccc(NC2=C(c3ccccc3Cl)C(=O)NC2=O)cc1 [SB-342411] | CLK4 | Not fulfilled
